Hello, the source for this data is ChEMBL document CHEMBL4270665, in case you need it.

Quick record of Ki values for Mu-type opioid receptor (Homo sapiens, UniProt P35372).
Non-standard residues stand in square brackets, D forms with d. Residues, ends and D or L forms follow the SMILES beside them. Dmt = Cc1cc(O)cc(C)c1C[C@H](N)C(=O)O
Readout Kind: Ki

[[record]]
compound = "Cc1cc(O)cc(C)c1C[C@H](N)C(=O)N1CCC[C@H]1C(=O)N[C@@H](Cc1ccccc1)C(=O)N[C@@H](Cc1ccccc1)C(=O)N[C@@H](CCC(N)=O)C(=O)N[C@@H](Cc1ccccc1)C(=O)N[C@@H](CCC(N)=O)C(=O)N[C@@H](Cc1ccccc1)C(=O)N[C@@H](CCCCN)C(N)=O (H-[Dmt]PFFQFQFK-NH2)"
readout_kind = "Ki"
reported_measurement = "5 to 141 nM"

[[record]]
compound = "Cc1cc(O)cc(C)c1C[C@H](N)C(=O)N1CCC[C@H]1C(=O)N[C@@H](Cc1c[nH]c2ccccc12)C(=O)N[C@@H](Cc1ccccc1)C(=O)N[C@@H](CCC(N)=O)C(=O)N[C@@H](Cc1ccccc1)C(=O)N[C@@H](CCC(N)=O)C(=O)N[C@@H](Cc1ccccc1)C(=O)N[C@@H](CCCCN)C(N)=O (H-[Dmt]PWFQFQFK-NH2)"
readout_kind = "Ki"
reported_measurement = "5 to 141 nM"

[[record]]
compound = "Cc1cc(O)cc(C)c1C[C@H](N)C(=O)N[C@H](CCCNC(=N)N)C(=O)N[C@@H](Cc1ccccc1)C(=O)O"
readout_kind = "Ki"
reported_measurement = "0.52 nM"

[[record]]
compound = "Cc1cc(O)cc(C)c1C[C@H](N)C(=O)N1CCC[C@H]1C(=O)N[C@@H](Cc1ccccc1)C(=O)N[C@@H](Cc1ccccc1)C(=O)N[C@@H](CCC(=O)O)C(=O)N[C@@H](Cc1ccccc1)C(=O)N[C@@H](CCC(N)=O)C(=O)N[C@@H](Cc1ccccc1)C(=O)N[C@@H](CCCCN)C(N)=O"
readout_kind = "Ki"
reported_measurement = "5 to 141 nM"

